Assay: soluble on expression in E. coli; label from the status in PepcDB or PDB records
measurement.type: soluble on expression in E. coli

{"monomer.sequence": "MMVTFGEPGVYSSYSNPLPSTDTWEDCLEYCLGLSTCVAVYNNNCQMFEIGQISTATSTSETKIAFKFLADNATCPIQEPTSLQGHYFTNTTYQPYTVSYSAPTWTFANSTQLECPTNYALFVRDLGPWCMKVIQHYACCNKTIAATMCNSYGAQLSGLDSTAEYDFMLAGSWPIFKNVTTNKIGSTQYYATGVWVDGARTLACMGNTTYPCNTTQAFSFTDPTLSSPPGGYLWLPGRPDGGDAPADGIVLNLYTTELYGMEDTPSSEPVSGVYCWMGYLCGAVPT", "measurement.type": "soluble on expression in E. coli", "readout.value": "not soluble"}
{"monomer.sequence": "MGSDKIHHHHHHMSNEHQLLVGLLKKLKDDALILPTLPEVAMRVQEVVGRPDSSLKQVAEIIGQDAAISARIIKVANSALYSRGVPAENINSAVTRIGLTQIKSIATSVAMEQLFISTNEMVWEVMDEVWRTSIDVTAAACSLLQIYNKKHPGSGLNYDTLTLAGLVHNIGALPVLTEAEAHPEMFTTIEHLRSLVRKMQGPIGRAVLKSWDFAPEVMEVVERWADLPYLGDHVSYLDFIRAAAFYTGELRAGNELEQRLDVFVKRGLPVSPEDLGSDAFLDSYHSIKASYE", "measurement.type": "soluble on expression in E. coli", "readout.value": "not soluble"}

###

Assay: soluble on expression in E. coli; label from the status in PepcDB or PDB records

{"monomer.sequence": "MPNLSNRLTLLREKQGWSKAETARRLGLKAPSTYGNWEYGIREPDLDMVTQIATLYDVSVDYLLGQQSIPTYAPSELQGEKDIAKRMIKISEDLRYEDDLNLNGKPLNDSAAHFLADSIDFLYEQAKKLND", "soluble on expression in E. coli": "not soluble"}
{"monomer.sequence": "MKEHSIDIQLSHPDDLFHLFGSNERHLRLMEEELDVVIHARTEIVQVLGEESACEEARQVIQALMVLVNRGMTVGTPDVVTAISMVKNDEIDKFVALYEEEIIKDNTGKPIRVKTLGQKLYVDSVKQHDVTFGIGPAGTGKTFLAVTLAVTALKRGQVKRIILTRPAVEAGESLGFLPGDLKEKVDPYLRPVYDALYQILGKDQTTRLMEREIIEIAPLAYMRGRTLDDAFVILDEAQNTTIMQMKMFLTRLGFHSKMIVNGDISQIDLPRNVKSGLIDAQEKLKNIHQIDFVHFSAKDVVRHPVVAQIIRAYEYSTEVAHD", "soluble on expression in E. coli": "not soluble"}

###

Test: soluble on expression in E. coli; label from the status in PepcDB or PDB records
measurement.type: soluble on expression in E. coli

Please review the following examples before continuing.
{"monomer.sequence": "GAMDPEFMSTPLPAIVPAARKATAAVIFLHGLGDTGHGWAEAFAGIRSSHIKYICPHAPVRPVTLNMNVAMPSWFDIIGLSPDSQEDESGIKQAAENIKALIDQEVKNGIPSNRIILGGFSQGGALSLYTALTTQQKLAGVTALSCWLPLRASFPQGPIGGANRDISILQCHGDCDPLVPLMFGSLTVEKLKTLVNPANVTFKTYEGMMHSSCQQEMMDVKQFIDKLLPPID", "soluble on expression in E. coli": "soluble"}
{"monomer.sequence": "MTTIVPTSEENPFLAVVRFTSQLAWADAGPEAAEPEITRLCREAEESMVAEKWLELSSLMVTSAELVSSKISEKDLECTYTIICSIVKNAKSPEQVLEMVKAIASKVAQQPSDKASLRLKILFNLYNLVDHPYARFQVYMKALTLAVDGKVTEYIVSSFKKIDNFLKEWNIDIKDQRELFLAIANVLKENKSLVNESLKFLTKYLATFSNEDAQVLDEAKEEAVRAVIEFVKASSIFQCDLLDLPAVAQLEKDAKYAPVYQLLKIFLTQRLNAYTEFQNANSGFLQSYGLSNEDCVTKMRLLSLVDLASDESGKIPYTSIKDTLQVNEQDVELWIVKAITAKLIESALPNVNLGQSNGNLSEQSLRLGSIITTIESNKVTEEGSQASSSSAAAIQGLSVR", "soluble on expression in E. coli": "soluble"}
{"monomer.sequence": "GHPTLKTPESVTGTWKGDVKIQCIYDPLRGYRQVLVKWLVRHGSDSVTIFLRDSTGDHIQQAKYRGRLKVSHKVPGDVSLQINTLQMDDRNHYTCEVTWQTPDGNQVIRDKIIELRVRK", "soluble on expression in E. coli": "soluble"}
{"monomer.sequence": "MGSDKIHHHHHHMNGLFVLAYAITNLHPGAGRGYGIVDMPVQRDQMGYPIIYSSAFKGPLKALCAGDAINDHGRIDCKKKGECCCLFGSEPEEEESSKGMLNVMDLPLFSVPAPTFDGFVQVTTNYLIDRARNIFEAISHINGYLGSLGNEIKALLDAQGNKSVEVYDTEAKVVNFDPSSFKLLSSLPLFNNRLAISDDKRVIDKSLIIYTRNRLNLLTKVVEEGGLWSEEYIPMGSIFIGGMIIDNVRNKFCDELSKISCDSRLFLHHFSRIFNADKISEDVYLFYLNIGGKESIGKGLMKVFIGV", "soluble on expression in E. coli": "not soluble"}

Form: sequence = MTQRLKDKLAVITGGANGIGRAIAERFAVEGADIAIADLVPAPEAEAAIRNLGRRVLTVKCDVSQPGDVEAFGKQVISTFGRCDILVNNAGIYPLIPFDELTFEQWKKTFEINVDSGFLMAKAFVPGMKRNGWGRIINLTSTTYWLKIEAYTHYISTKAANIGFTRALASDLGKDGITVNAIAPSLVRTATTEASALSAMFDVLPNMLQAIPRLQVPLDLTGAAAFLASDDASFITGQTLAVDGGMVRH ; soluble on expression in E. coli = soluble

Form: sequence = MSLKVALVHDWLTNMGGAERVIINLKEIYKEAPIYTSLYNPDKLDDELRNIDVRTSFLQKPKNIKRGHQKLLPFMPMAFESFDLNEYDIVLSSCSSCAKGVVTNPNTMHVCYCHTPMRYAWEYYYEYADEWGLNKLKGKLLKYVMNYIRLWDGVSSKRVDYYIANSQNVAKRIWKHYKRESVVIHPPVRCKLFDISDVNEEYFLIVSRLVPYKRIDLAVEVFNELGLPLVVIGGGKDLDRLKNMAKDNIKFLGRQSDEVIKEYYSKCRAFIFPGEEDFGITPLEAQASGRPVIAYGKGGALETVVSGVTGVFFKEQTVDSLKSAVNEFEKINFDKSVIRRHAEEFDEEIFKKKIREYLSRSYDEFKKLKKWKVEGHHHHHH ; soluble on expression in E. coli = soluble

Form: sequence = MGAIAPSSNILAKAMVDAIDFEVAKCIVELGPGTGSFTKEIMKRKKKRTTFILIEINEVFFKKLQKQYEDDASVVVIHGSAENIQRYVEELQIKGVDYVLSGLPFTSLPKEESSRILNNVMESLRENGRFITFQYSLVKKGFIEDFFPDIQLKKVWFNFPPAYVFSCKKSLEHHHHHH ; soluble on expression in E. coli = soluble

Form: sequence = AHHHHHHGSVKFCPKCGSIMIPDRRRGVFVCRKCGYEEPINPEDTKAYRRTEEVKHRPDEGVVVIEQEVSTLPTAKVTCPKCGHNEAWWWELQTRAGDEPSTIFYKCKKCGYVWRSYE ; soluble on expression in E. coli = soluble

Form: sequence = GMIYSKVENFINENKQNAIFTEGASHENIGRIEENLQCDLPNSYKWFLEKYGAGGLFGVLVLGYNFDHASVVNRTNEYKEHYGLTDGLVVIEDVDYFAYCLDTNKMKDGECPVVEWDRVIGYQDTVADSFIEFFYNKIQEAKDDWDEDEDWDD ; soluble on expression in E. coli = soluble

Form: sequence = MKNKGLLLKVSTGLAAVSFLFSEYLFKISFKRVDHVPETSQEKQKYAASYWEYVDWFRRINKEHWTFQTKNETERMSAYFIPSKEENSKKVVIIAHGYKGNGETMSSYAKMFYEMGFNVLLPDDRGHGQSMGEYISFGWLDRLDYLQWLKKIIKRVGPKSEILLFGVSMGASTVEMLSGEDLPSQVKCVIADCGYSSIDEEMTFLLKHHYHLPKYPFYPLVSTINRYRLGYYLGDVSSVEQLKKNKLPIFFIHGENDDYVPSYMSLENYEATTAAKELWIVNNATHAESYWLDPLEYKKRIKDFLNKYFNDKN ; soluble on expression in E. coli = not soluble

Form: sequence = MSLSLREVSQLLCQLKVLDQKITKVFEEQVGLSLTRYELLMILKERQPCLQTEIQEHLKIDSGAVTRHLKILEEKQYVTRQRNPENNREVLVHLTEKAQQELQQCTAKQQTVTEIIPSTFTKDDCRQLKELLTKLDQSITTKEV ; soluble on expression in E. coli = not soluble

Form: sequence = MSLGLNILKTLRSHRVSEGVSNSDTHYELTSALIKSLRGSDIDASIYYLARLIQGGEEPAFLARRMVIFASEDIGNANPNALNLATNVMLAVSKIGYPEARIILAQCAVYLASSPKSNSSYKAINDAIEFVENRPALPVPKYLINTDKAKSEYLYPHDFGGWVEQKYMSTQVKFYKSNAIGFEKTLDEWITKLKESYNEKEGHHHHHH ; soluble on expression in E. coli = soluble

Form: sequence = MASAIWYYTVLVAESVLGIVGLRLYEEPAYTVLDRPSDTIEIRRYAPRVAAEVDLERRGNADGQAFTLLFNYIAGANRGGSGTSERVAMTVPVDVARPAKIAMTAPVETATQDRMTRMRFFLPATFTADTAPKPSDERVQIVTVPEQTIATLRFSGTGRDLREREQQLIAALANTPWQPVGAPYGLFYDAPFTLPFVRRNEAAVEVAKRLEHHHHHH ; soluble on expression in E. coli = not soluble
